# Tested on: Orco (AgORco) (Anopheles gambiae, UniProt Q7QCC7)
# Construct: expressed in transfected cells
# Measurement protocol: Fluo-4 Ca2+ imaging, HEK293 cells expressing Orco alone
# Type: cell-based
# Condition set: HEK293, read-out: Orco Agonist % value Of VUAA1
# Source text: For transient transfections, ORs were cloned into pCl (Promega) and transfected into Flp-In™ T-REx™293 cell lines (Invitrogen) with Fu GENE6 (Roche). […] Baseline readings were taken for 20 s before automated addition of compound previously diluted in DMSO and assay buffer. […]

{"Compound": "CCCc1ccc(NC(=O)CSc2nnc(-c3cccnc3)n2CC)cc1", "Unit spec": "%", "Emax": 87}
{"Compound": "CCc1ccc2c(c1)CCN2C(=O)CSc1nnc(-c2cccnc2)n1CC", "Unit spec": "%", "Emax": 121}
{"Compound": "CCn1c(SCC(=O)N2CCc3cc(Br)ccc32)nnc1-c1cccnc1", "Unit spec": "%", "Emax": 59}
{"Compound": "C=Cc1ccc(NC(=O)CSc2nnc(-c3cccnc3)n2CC)cc1 [drawing 376]", "Unit spec": "%", "Emax": 57}
{"Compound": "CCn1c(SCC(=O)Nc2ccc(C(C)C)cc2)nnc1-c1cccnc1 [drawing 381]", "Unit spec": "%", "Emax": 102}
{"Compound": "CCn1c(SCC(=O)Nc2ccc(C(C)C)cc2)nnc1-c1ccncc1", "Unit spec": "%", "Emax": 136}
{"Compound": "CCn1c(SCC(=O)Nc2ccc(C(C)C)cc2)nnc1-c1ccnc(F)c1", "Unit spec": "%", "Emax": 38}
{"Compound": "CCc1ccc(NC(=O)CSc2nnc(-c3cccnc3)n2CC)cc1 [drawing 373]", "Unit spec": "%", "Emax": 100}

###

# Tested on: AgORco+AgOR48 (Anopheles gambiae, UniProt Q7QCC7)
# Construct: expressed in transfected cells
# Measurement protocol: Ca2+ imaging, HEK cells expressing AgORco+AgOR48
# Format: cell-based
# Condition set: Orco + 48; read-out: Orco + 48 Agonist EC50
Assay metric: EC50 (µM)

{"Molecule": "C=Cc1ccc(NC(=O)CSc2nnc(-c3cccnc3)n2CC)cc1 [drawing 376]", "Meas value": 37.4}
{"Molecule": "CCn1c(SCCC(=O)Nc2ccc(C(C)C)cc2)nnc1-c1cccnc1", "Meas value": 2.2}
{"Molecule": "CCc1ccc2c(c1)CCN2C(=O)CSc1nnc(-c2cccnc2)n1CC", "Meas value": 12.8}
{"Molecule": "CCCc1ccc(NC(=O)CSc2nnc(-c3cccnc3)n2CC)cc1", "Meas value": 19.8}
{"Molecule": "CCn1c(SCC(=O)Nc2ccc(C(C)C)cc2)nnc1-c1ccncc1", "Meas value": 3.5}
{"Molecule": "CCn1c(SCC(=O)Nc2ccc(C(C)C)cc2)nnc1-c1ccnc(F)c1", "Meas value": 75.2}
{"Molecule": "CCn1c(SCC(=O)Nc2ccc(C(C)C)cc2)nnc1-c1cccnc1 [drawing 381]", "Meas value": 9.9}
{"Molecule": "CCc1ccc(NC(=O)CSc2nnc(-c3cccnc3)n2CC)cc1 [drawing 373]", "Meas value": 14}
{"Molecule": "CCn1c(SCC(=O)Nc2ccc(C)cc2)nnc1-c1cccnc1 [drawing 372]", "Meas value": 996}

###

This section presents compounds with their documented EC50 values.
# Tested on: AgORco+AgOR48 (Anopheles gambiae, UniProt Q7QCC7)
# Construct: expressed in transfected cells
# Sequence (Q7QCC7 1-478): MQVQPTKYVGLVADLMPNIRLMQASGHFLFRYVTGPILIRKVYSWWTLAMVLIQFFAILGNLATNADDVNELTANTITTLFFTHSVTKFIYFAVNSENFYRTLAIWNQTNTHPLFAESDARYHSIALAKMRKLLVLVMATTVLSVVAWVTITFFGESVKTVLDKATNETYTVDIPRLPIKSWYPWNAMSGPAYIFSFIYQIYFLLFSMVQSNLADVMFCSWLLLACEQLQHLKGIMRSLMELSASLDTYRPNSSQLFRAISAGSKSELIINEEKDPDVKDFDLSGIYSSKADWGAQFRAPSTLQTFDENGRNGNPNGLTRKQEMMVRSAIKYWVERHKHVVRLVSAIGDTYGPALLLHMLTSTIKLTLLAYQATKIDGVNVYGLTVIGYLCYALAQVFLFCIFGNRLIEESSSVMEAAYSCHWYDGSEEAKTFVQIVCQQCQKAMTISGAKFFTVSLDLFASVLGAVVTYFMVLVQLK
# Measurement protocol: Ca2+ imaging, HEK cells expressing AgORco+AgOR48
# Format: cell-based
# Condition set: AgORco co-expressed with AgOR48; read-out: EC50
Assay metric: EC50

{"Compound": "CCCCCCC1CCCC(=O)O1 [D-undecalactone, reference compound]", "Meas value": "260 nM"}
{"Compound": "CC(C)c1ccc(NC(=O)CSc2nnc(-c3ccncc3)n2C2CC2)cc1 [VUAA4]", "Meas value": "1700 nM"}

The reported numbers originate from patent US11484032B2.
